target: Dual specificity protein kinase CLK1 (Mus musculus); assay: Inhibition of mouse recombinant CLK1 expressed in bacterial expression system using GRSRSRSRSRSR as substrate by ADP-glo assay
Sequence (P22518 whole entry): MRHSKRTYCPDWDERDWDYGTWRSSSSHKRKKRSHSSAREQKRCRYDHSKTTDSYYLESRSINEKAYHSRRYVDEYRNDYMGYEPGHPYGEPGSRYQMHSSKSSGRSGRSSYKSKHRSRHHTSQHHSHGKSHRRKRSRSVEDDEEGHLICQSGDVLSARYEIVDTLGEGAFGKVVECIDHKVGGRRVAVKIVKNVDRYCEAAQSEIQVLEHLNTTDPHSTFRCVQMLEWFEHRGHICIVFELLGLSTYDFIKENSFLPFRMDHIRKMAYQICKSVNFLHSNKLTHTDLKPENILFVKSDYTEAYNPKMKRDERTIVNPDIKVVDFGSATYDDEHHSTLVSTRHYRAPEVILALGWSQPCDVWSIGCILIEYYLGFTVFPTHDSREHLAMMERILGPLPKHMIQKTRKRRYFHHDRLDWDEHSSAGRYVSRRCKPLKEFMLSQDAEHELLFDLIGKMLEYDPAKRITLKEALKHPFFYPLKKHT
Recorded IC50, one value per entry.
measurement label: IC50 (nM)

smiles_code=CCCCNc1nc2cc([N+](=O)[O-])ccc2s1 measurement_target="Dual specificity protein kinase CLK1 (Mus musculus)" measurement_label=IC50 bound_type=> val=10000
smiles_code=CCCCNc1nc2ccc([N+](=O)[O-])cc2[nH]1 measurement_target="Dual specificity protein kinase CLK1 (Mus musculus)" measurement_label=IC50 bound_type== val=800

====

Activity for assorted compounds
target: Receptor-interacting serine/threonine-protein kinase 1 (Homo sapiens); test: Inhibition of RIPK1 in human FADD-deficient Jurkat I 2.1 cells assessed as protection against TNFalpha-induced necroptosis by measuring remaining viable cells at 10 uM measured after 24 hrs by MTS assay relative to TNFalpha; format: cell-based
measurement label: Activity (%)

smiles_code=N#Cc1ccc(Nc2nc3ccc([N+](=O)[O-])cc3[nH]2)cc1 measurement_label=Activity val=-31.4
smiles_code=CCCCNc1nc2ccc(C#N)cc2[nH]1 measurement_label=Activity val=6.3
smiles_code=O=[N+]([O-])c1ccc2nc(NC3CCCCC3)[nH]c2c1 measurement_label=Activity val=68.1
smiles_code=CCNc1nc2ccc(-c3cccc([N+](=O)[O-])c3)cc2[nH]1 measurement_label=Activity val=-19.4
smiles_code=O=[N+]([O-])c1cccc2nc(NCc3ccccc3)[nH]c12 measurement_label=Activity val=5.1
smiles_code=CCCCNc1nc2cccc([N+](=O)[O-])c2[nH]1 measurement_label=Activity val=1.2
smiles_code=O=[N+]([O-])c1ccc2nc(NCc3ccccc3)[nH]c2c1 measurement_label=Activity val=9
smiles_code=COCCNc1nc2cccc([N+](=O)[O-])c2[nH]1 measurement_label=Activity val=-2.3
smiles_code=CCCCNC(=O)CNc1nc2ccc([N+](=O)[O-])cc2[nH]1 measurement_label=Activity val=4.6
smiles_code=CCCCNc1nc2ccc(-c3cn(Cc4ccccc4)nn3)cc2[nH]1 measurement_label=Activity val=-10.5
smiles_code=O=[N+]([O-])c1ccc2nc(Nc3ccccc3)[nH]c2c1 measurement_label=Activity val=41.9
smiles_code=O=[N+]([O-])c1ccc2sc(Cl)nc2c1 measurement_label=Activity val=0.1
